Target: GSK3β (Homo sapiens, UniProt P49841)
Sequence (P49841 whole entry, species assumed): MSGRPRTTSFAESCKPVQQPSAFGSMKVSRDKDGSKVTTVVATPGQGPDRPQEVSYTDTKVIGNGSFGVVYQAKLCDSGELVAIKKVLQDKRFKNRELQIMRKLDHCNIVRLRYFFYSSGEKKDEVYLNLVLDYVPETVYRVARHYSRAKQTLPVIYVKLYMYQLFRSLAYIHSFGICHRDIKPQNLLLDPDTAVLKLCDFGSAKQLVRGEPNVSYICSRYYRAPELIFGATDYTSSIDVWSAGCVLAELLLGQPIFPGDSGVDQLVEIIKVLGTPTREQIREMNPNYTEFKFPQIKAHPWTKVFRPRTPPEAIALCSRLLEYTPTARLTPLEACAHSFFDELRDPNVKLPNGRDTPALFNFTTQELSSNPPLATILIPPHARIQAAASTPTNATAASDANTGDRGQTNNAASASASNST
Assay: GSK3β kinase assay (Caliper LabChip, fluoresceinated peptide substrate)
Assay type: biochemical
Details: first value of the cell; 250 pM enzyme, 20 uM ATP, 20 hours at room temperature; read-out: GSK3β/α (nM): GSK3β IC50
reported-metric: log10 of IC50 (log10 of the value in nM)

# compound, log10 of IC50
records = [
    ("Cc1ccc(Nc2cc(C(=O)Nc3cncc(-c4ccccc4F)c3)ccn2)nc1", 0.86),
    ("O=C(Nc1cnc(Cl)cc1N1CCC(F)(F)CC1)c1ccnc(Nc2ccc(C(F)(F)F)cn2)c1", 0.88),
    ("CC(C)(C)Sc1ccncc1NC(=O)c1ccnc(Nc2ccc(C(F)(F)F)cn2)c1", -0.85),
    ("O=C(Nc1cncnc1N1CCOCC1)c1ccnc(Nc2ccc(C(F)(F)F)cn2)c1", 1.23),
    ("COC(=O)c1cccc(Nc2cc(C(=O)Nc3cncc(-c4ccccc4F)c3)ccn2)n1", 0.43),
    ("O=C(Nc1cnncc1C1(CCCCl)OCCO1)c1ccnc(Nc2ccc(C(F)(F)F)cn2)c1", -0.72),
    ("N#Cc1ccc(Nc2cc(C(=O)Nc3cnccc3N3CCCCC3)ccn2)nc1", -0.38),
    ("O=C(Nc1cnccc1-c1ccccn1)c1ccnc(Nc2ccc(C(F)(F)F)cn2)c1", -0.11),
    ("Cc1cc(C(C)(O)C2CC2)c(NC(=O)c2ccnc(Nc3ccc(C(F)(F)F)cn3)c2)cn1 (centres unmarked)", -0.04),
    ("O=C(Nc1cncc(-c2ccccc2F)c1)c1ccnc(Nc2ccc(N3CCOCC3)cn2)c1", 0.83),
    ("O=C(Nc1cnccc1C1(F)COC1)c1ccnc(Nc2ccc(C(F)(F)F)cn2)c1", 1.23),
    ("CC(=O)c1ccc(Nc2cc(C(=O)Nc3cncc(-c4ccccc4F)c3)ccn2)nc1", 0.78),
    ("Cc1cc(C(O)C2CC2)c(NC(=O)c2ccnc(Nc3ccc(C(F)(F)F)cn3)c2)cn1 (centres unmarked)", -0.60),
    ("Cn1ncc(NC(=O)c2ccnc(Nc3ccc(C(F)(F)F)cn3)c2)c1C(C)(O)C1CC1 (centres unmarked)", -0.52),
    ("CCOc1ccncc1NC(=O)c1ccnc(Nc2nccc3ccccc23)c1", 0.77),
    ("O=C(Nc1cnccc1-c1ccc(Cl)cc1)c1ccnc(Nc2ccc(C(F)(F)F)cn2)c1", 1.00),
    ("COc1ccc(Nc2cc(C(=O)Nc3cncc(-c4ccccc4F)c3)ccn2)nc1", 0.54),
]
